// data source = patent EP4592317A1

# subject of test: T1, Human 4-1BB extracellular domain recombinant protein (his-tag) (human, UniProt Q07011 24-186)
# T1 construct: extracellular domain; also called Human4-1BB, his-tag; human 4-1BB extracellular region recombinant protein; not shown: his-tag
# method summary: ELISA, coated human 4-1BB-his 200 ng/well; antibody 10.0 µg/ml
Below, each of the binders is paired with its reported absorbance at 450 nm value.

- binder: "137-12 VHH-hFc recombinant antibody (Fc fusion, VHH fragment inserted into vector pFclG with human IgG1 Fc tag, expressed in HEK293F; not shown: human IgG1 Fc tag of the eukaryotic expression vector pFclG) QVQLVESGGGLVHPGGSLRLSCAASGFTLDDSAIGWFRQAPGKEREGVSCRSRSGYMTKYADSVKGRFTISRYNANNTMYLQMNSLKPEDTAVYYCATTRRGYCSGYETKGVDYWGQGIQVTVSS"
  absorbance at 450 nm: 0.432
- binder: "137-18 VHH-hFc recombinant antibody (Fc fusion, VHH fragment inserted into vector pFclG with human IgG1 Fc tag, expressed in HEK293F; also called CD137-18; not shown: human IgG1 Fc tag of the eukaryotic expression vector pFclG) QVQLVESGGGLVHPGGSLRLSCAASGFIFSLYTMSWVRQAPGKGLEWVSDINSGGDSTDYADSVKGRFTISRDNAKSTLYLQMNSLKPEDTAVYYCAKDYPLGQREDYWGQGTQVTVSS"
  absorbance at 450 nm: 2.93
- binder: "137-36 VHH-hFc recombinant antibody (Fc fusion, VHH fragment inserted into vector pFclG with human IgG1 Fc tag, expressed in HEK293F; not shown: human IgG1 Fc tag of the eukaryotic expression vector pFclG) QVQLVESGGGLVQTGGSLTLSCVASGRRFEAYTIGWLRQAPGDLREGVGCIFGGTTFTGYDDSVKGRFTISRDTAKNTVYLRMNNLTSEDTATYYCAAEGRPGQIKGQHGCLTPSWYNYKGQGTQVTVSS"
  absorbance at 450 nm: 0.48
- binder: "137-39 VHH-hFc recombinant antibody (Fc fusion, VHH fragment inserted into vector pFclG with human IgG1 Fc tag, expressed in HEK293F; Preparation had non-specific bands, purity about 30%; not shown: human IgG1 Fc tag of the eukaryotic expression vector pFclG) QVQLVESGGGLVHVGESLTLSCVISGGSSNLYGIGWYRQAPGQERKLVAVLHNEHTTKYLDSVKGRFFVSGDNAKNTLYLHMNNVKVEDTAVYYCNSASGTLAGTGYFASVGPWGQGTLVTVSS"
  absorbance at 450 nm: 1.45
